Tested on: Huh-7
Assay type: toxicity, cell-based
Conditions: human, huh-7, 24 h
Reported Metric: CC50
Write the numeric value and follow it with the unit.

CC(=O)/C=C/[C@H](C[C@@H]1CCNC1=O)NC(=O)[C@H](CC1CC1)NC(=O)OCc1ccccc1 100 µM
CC(=O)/C=C/[C@H](C[C@@H]1CCNC1=O)NC(=O)[C@H](CC1CCCCC1)NC(=O)OCc1ccccc1 14.5 µM

Now, please, on to the next molecule.
[ask] Looking for the measured CC50 of "CCCC[C@H](NC(=O)OCc1ccccc1)C(=O)N[C@H](/C=C/C(C)=O)C[C@@H]1CCNC1=O" , can you help?
[reply] 60.9 µM
